target: Receptor tyrosine-protein kinase erbB-2 (Homo sapiens, UniProt P04626); settings: Sf9, human, 0.5 h
Sequence (P04626 whole entry): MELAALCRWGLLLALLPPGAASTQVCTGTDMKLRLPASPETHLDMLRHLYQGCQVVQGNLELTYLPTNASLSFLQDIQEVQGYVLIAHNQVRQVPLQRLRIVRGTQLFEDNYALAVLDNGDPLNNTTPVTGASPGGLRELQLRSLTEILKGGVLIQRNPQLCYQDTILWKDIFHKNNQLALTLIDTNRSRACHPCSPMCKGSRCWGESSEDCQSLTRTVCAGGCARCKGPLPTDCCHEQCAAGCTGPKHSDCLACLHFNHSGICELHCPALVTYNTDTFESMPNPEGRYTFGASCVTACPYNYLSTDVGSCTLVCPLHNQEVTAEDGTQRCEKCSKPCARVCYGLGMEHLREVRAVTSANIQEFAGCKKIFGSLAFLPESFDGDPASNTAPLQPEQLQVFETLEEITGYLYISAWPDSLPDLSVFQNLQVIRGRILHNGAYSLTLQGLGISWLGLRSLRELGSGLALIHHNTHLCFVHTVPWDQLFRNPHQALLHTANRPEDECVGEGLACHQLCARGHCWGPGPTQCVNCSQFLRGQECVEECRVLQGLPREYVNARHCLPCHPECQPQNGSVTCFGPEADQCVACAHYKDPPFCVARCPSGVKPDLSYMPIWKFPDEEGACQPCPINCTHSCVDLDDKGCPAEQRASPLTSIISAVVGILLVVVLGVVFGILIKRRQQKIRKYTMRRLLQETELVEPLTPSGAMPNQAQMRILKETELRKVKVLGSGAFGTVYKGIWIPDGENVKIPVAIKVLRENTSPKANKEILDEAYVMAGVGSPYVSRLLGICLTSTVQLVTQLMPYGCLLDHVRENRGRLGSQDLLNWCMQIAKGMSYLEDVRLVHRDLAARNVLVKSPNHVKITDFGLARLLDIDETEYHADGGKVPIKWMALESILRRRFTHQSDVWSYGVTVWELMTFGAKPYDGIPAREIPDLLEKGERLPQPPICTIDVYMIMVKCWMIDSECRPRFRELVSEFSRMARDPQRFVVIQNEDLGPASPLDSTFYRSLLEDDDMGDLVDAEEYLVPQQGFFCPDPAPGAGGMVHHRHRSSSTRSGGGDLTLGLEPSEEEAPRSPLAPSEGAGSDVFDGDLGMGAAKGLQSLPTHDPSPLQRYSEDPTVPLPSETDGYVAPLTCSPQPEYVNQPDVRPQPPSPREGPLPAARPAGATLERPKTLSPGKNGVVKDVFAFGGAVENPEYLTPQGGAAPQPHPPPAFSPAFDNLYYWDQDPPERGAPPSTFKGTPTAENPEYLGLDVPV
OUTCOME MEASURE: activity at 10 µM (%)
Expressed in %, but write only the number.

These recorded examples may help you get a feel for the data.
COMPOUND STRUCTURE STRING	STUDY SYSTEM	activity at 10 µM [%]
O=C(Nc1ccc2ncnc(Nc3ccc(Oc4cccc(F)c4)c(Cl)c3)c2c1)c1ccc(CNCCO)cc1	Receptor tyrosine-protein kinase erbB-2 (Homo sapiens, UniProt P04626)	-92
Cc1cccc(Oc2ccc(Nc3ncnc4ccc(NC(=O)CNCCO)cc34)cc2Cl)c1	Receptor tyrosine-protein kinase erbB-2 (Homo sapiens, UniProt P04626)	-93
CN1CCN(CCCOc2ccc3ncnc(Nc4ccc(Oc5cccc(C(F)(F)F)c5)c(Cl)c4)c3c2)CC1	Receptor tyrosine-protein kinase erbB-2 (Homo sapiens, UniProt P04626)	-92

Continue with the next compound.
*Q* Field: activity at 10 µM (Receptor tyrosine-protein kinase erbB-2 (Homo sapiens, UniProt P04626)). Entry: CS(=O)(=O)CCNCc1ccc(-c2ccc3ncnc(Nc4ccc(OCc5cccc(F)c5)c(Cl)c4)c3c2)o1
*A* -52

###

Listing of entries alongside the reported activity at 10 µM.
biological target: Platelet-derived growth factor receptor alpha (Homo sapiens, UniProt P16234); assay: Effect on human recombinant N-terminal GST-tagged PDGFRalpha (550 to end residues) expressed in baculovirus infected Sf9 insect cells in presence of substrate and [gamma-32ATP] at 10 uM incubated for 30 mins by scintillation counting based radiometry assay relative to control; conditions: 0.5 h, read-out: Activity
Sequence (P16234 whole entry): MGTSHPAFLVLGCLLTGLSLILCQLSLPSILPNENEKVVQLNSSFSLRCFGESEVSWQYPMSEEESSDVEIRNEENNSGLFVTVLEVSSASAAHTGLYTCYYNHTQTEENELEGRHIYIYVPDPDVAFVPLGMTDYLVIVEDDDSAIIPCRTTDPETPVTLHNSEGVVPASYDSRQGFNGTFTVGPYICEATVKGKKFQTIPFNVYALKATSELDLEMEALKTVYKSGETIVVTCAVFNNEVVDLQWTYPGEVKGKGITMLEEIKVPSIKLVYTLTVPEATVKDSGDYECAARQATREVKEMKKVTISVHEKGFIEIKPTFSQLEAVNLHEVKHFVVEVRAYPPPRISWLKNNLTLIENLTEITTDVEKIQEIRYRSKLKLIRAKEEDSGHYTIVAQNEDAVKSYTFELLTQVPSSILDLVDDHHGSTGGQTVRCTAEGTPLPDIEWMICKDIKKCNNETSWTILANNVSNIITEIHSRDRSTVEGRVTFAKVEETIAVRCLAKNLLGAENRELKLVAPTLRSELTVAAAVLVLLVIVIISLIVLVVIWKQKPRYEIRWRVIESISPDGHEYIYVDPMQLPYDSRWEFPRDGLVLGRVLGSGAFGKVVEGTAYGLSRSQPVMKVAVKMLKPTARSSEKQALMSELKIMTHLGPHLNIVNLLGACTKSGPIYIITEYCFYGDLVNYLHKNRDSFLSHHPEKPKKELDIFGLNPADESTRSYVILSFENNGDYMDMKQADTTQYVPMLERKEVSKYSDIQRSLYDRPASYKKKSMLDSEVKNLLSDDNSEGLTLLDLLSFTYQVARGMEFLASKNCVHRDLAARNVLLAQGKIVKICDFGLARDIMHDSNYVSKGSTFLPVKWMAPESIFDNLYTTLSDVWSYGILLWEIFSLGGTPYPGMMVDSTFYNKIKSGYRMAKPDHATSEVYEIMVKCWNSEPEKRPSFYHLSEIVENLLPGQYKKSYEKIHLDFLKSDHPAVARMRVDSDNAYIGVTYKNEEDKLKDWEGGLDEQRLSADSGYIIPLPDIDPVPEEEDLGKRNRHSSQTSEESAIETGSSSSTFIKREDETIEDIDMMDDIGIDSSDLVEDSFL
Report the value in % with no unit label.

COMPOUND	READING
O=C(CN1CCOCC1)Nc1ccc2ncnc(Nc3ccc(Oc4cccc(F)c4)c(Cl)c3)c2c1	18
O=C(CNCCO)Nc1ccc2ncnc(Nc3ccc(OCc4cccc(F)c4)c(Cl)c3)c2c1	54
CN1CCN(CCCOc2ccc3ncnc(Nc4ccc(Oc5cccc(C(F)(F)F)c5)c(Cl)c4)c3c2)CC1	115
Cc1cccc(Oc2ccc(Nc3ncnc4ccc(NC(=O)CNCCO)cc34)cc2Cl)c1	86
O=C(Nc1ccc2ncnc(Nc3ccc(Oc4cccc(F)c4)c(Cl)c3)c2c1)c1ccc(CNCCO)cc1	-4

*Q* Query (compound): CS(=O)(=O)CCNCc1ccc(-c2ccc3ncnc(Nc4ccc(OCc5cccc(F)c5)c(Cl)c4)c3c2)o1 [LAPATINIB] ; field requested: activity at 10 µM
*A* 56

*Q* Another: O=C(CN1CCOCC1)Nc1ccc2ncnc(Nc3ccc(OCc4cccc(F)c4)c(Cl)c3)c2c1
*A* 55

*Q* Next compound: O=C(CN1CCOCC1)Nc1ccc2ncnc(Nc3ccc(Oc4cccc(C(F)(F)F)c4)c(Cl)c3)c2c1
*A* 82

*Q* Same lookup for CNC(=O)c1cc(Oc2ccc(NC(=O)Nc3ccc(Cl)c(C(F)(F)F)c3)cc2)ccn1 [SORAFENIB] , please.
*A* -55

###

Catalogue of microsomal CLint at 1 h, 100 µM readings, one per entry.
experiment: in vitro; details: CD-1, mouse, microsomes

// worked examples, microsomal CLint at 1 h, 100 µM included
COMPOUND STRUCTURE STRING	microsomal CLint at 1 h, 100 µM
O=C(O)Cc1ccccc1Nc1c(Cl)cccc1Cl	23.1 µL/min/mg
C[C@]12CC[C@H]3[C@@H](CCC4=CC(=O)CC[C@@]43C)[C@@H]1CC[C@@H]2O	279 µL/min/mg
CN1CCN(CCCOc2ccc3ncnc(Nc4ccc(OCc5cccc(F)c5)c(Cl)c4)c3c2)CC1	24.2 µL/min/mg

Continue with the compound presented below.
*Q* What does the data say about its microsomal CLint at 1 h, 100 µM? Entry: O=C(Nc1ccc2ncnc(Nc3ccc(Oc4cccc(F)c4)c(Cl)c3)c2c1)c1ccc(CNCCO)cc1
*A* < 9.6 µL/min/mg

###

pIC50 values, listed per item
system: MDA-MB-231; assay: Antiproliferative activity against human MDA-MB-231 cells assessed as reduction in cell viability incubated for 72 hrs by WST8 assay; format: functional, cell-based; details: MDA-MB-231, 72 h
FYI, pIC50 means -log10 of a concentration in mol per litre.

Study these solved cases before continuing.
COMPOUND	READING
Cc1cccc(Oc2ccc(Nc3ncnc4ccc(NC(=O)CNCCO)cc34)cc2Cl)c1	5.11
CS(=O)(=O)CCNCc1ccc(-c2ccc3ncnc(Nc4ccc(OCc5cccc(F)c5)c(Cl)c4)c3c2)o1 [LAPATINIB]	4.98

*Q* What pIC50 value was documented for this compound, CCN(CC)CC(=O)Nc1ccc2ncnc(Nc3ccc(Oc4cccc(C)c4)c(Cl)c3)c2c1 ?
*A* 5.55

*Q* Query O=C(Nc1ccc2ncnc(Nc3ccc(Oc4cccc(F)c4)c(Cl)c3)c2c1)c1ccc(CN2CCOCC2)cc1 next
*A* 4.94

*Q* Same thing, different compound: Cc1cccc(Oc2ccc(Nc3ncnc4ccc(NC(=O)CN5CCN(C)CC5)cc34)cc2Cl)c1
*A* 5.35

*Q* Queued: Cc1cccc(Oc2ccc(Nc3ncnc4ccc(NC(=O)CN5CCOCC5)cc34)cc2Cl)c1
*A* 4.86

*Q* Query Fc1cccc(COc2ccc(Nc3ncnc4ccc(OCCCN5CCOCC5)cc34)cc2Cl)c1 next
*A* 5.14

*Q* Do the same for CN1CCN(CCCOc2ccc3ncnc(Nc4ccc(Oc5cccc(C(F)(F)F)c5)c(Cl)c4)c3c2)CC1 please
*A* 5.97

*Q* Likewise for O=C(CN1CCOCC1)Nc1ccc2ncnc(Nc3ccc(Oc4cccc(C(F)(F)F)c4)c(Cl)c3)c2c1 ?
*A* 5.05

*Q* Please do the same for CN1CCN(Cc2ccc(C(=O)Nc3ccc4ncnc(Nc5ccc(Oc6cccc(F)c6)c(Cl)c5)c4c3)cc2)CC1 as well.
*A* 5.72

*Q* Request: O=C(Nc1ccc2ncnc(Nc3ccc(Oc4cccc(F)c4)c(Cl)c3)c2c1)c1ccc(CNCCO)cc1
*A* 5.28

*Q* Same question for CN(C)CC(=O)Nc1ccc2ncnc(Nc3ccc(Oc4cccc(F)c4)c(Cl)c3)c2c1 please.
*A* 5.18

*Q* Proceed to CCN(CC)CCCOc1ccc2ncnc(Nc3ccc(Oc4cccc(C(F)(F)F)c4)c(Cl)c3)c2c1
*A* 5.86

*Q* Let us now turn to CN(C)Cc1ccc(C(=O)Nc2ccc3ncnc(Nc4ccc(Oc5cccc(F)c5)c(Cl)c4)c3c2)cc1
*A* 5.30

*Q* Please give the result for Fc1cccc(Oc2ccc(Nc3ncnc4ccc(OCCCN5CCOCC5)cc34)cc2Cl)c1 too.
*A* 4.99

*Q* Same question for OCCNCCCOc1ccc2ncnc(Nc3ccc(Oc4cccc(C(F)(F)F)c4)c(Cl)c3)c2c1 please.
*A* 5.71

*Q* Now consider O=C(CNCCO)Nc1ccc2ncnc(Nc3ccc(OCc4cccc(F)c4)c(Cl)c3)c2c1 and answer again.
*A* 5.06

*Q* What about this compound? O=C(CN1CCOCC1)Nc1ccc2ncnc(Nc3ccc(Oc4cccc(F)c4)c(Cl)c3)c2c1
*A* 4.52

###

Recorded Activity values for a group of compounds are listed next.
test: Antiproliferative activity against human MDA-MB-231 cells assessed as lethality at 10 uM after 48 hrs by SRB assay relative to control; type: functional, MDA-MB-23
Please reply with the bare figure in % and do not write the unit itself.

Study these solved cases before continuing.
COMPOUND STRUCTURE STRING	QUANTITY UNIT	READING
CN1CCN(CCCOc2ccc3ncnc(Nc4ccc(OCc5cccc(F)c5)c(Cl)c4)c3c2)CC1	%	11.7
CN1CCN(CC(=O)Nc2ccc3ncnc(Nc4ccc(Oc5cccc(C(F)(F)F)c5)c(Cl)c4)c3c2)CC1	%	11.7
CCN(CC)CCCOc1ccc2ncnc(Nc3ccc(Oc4cccc(C(F)(F)F)c4)c(Cl)c3)c2c1	%	11.7
CN1CCN(CCCOc2ccc3ncnc(Nc4ccc(Oc5cccc(C(F)(F)F)c5)c(Cl)c4)c3c2)CC1	%	18
OCCNCCCOc1ccc2ncnc(Nc3ccc(Oc4cccc(C(F)(F)F)c4)c(Cl)c3)c2c1	%	18

*Q* What does the data say about its Activity? Entry: CN(C)Cc1ccc(C(=O)Nc2ccc3ncnc(Nc4ccc(Oc5cccc(F)c5)c(Cl)c4)c3c2)cc1
*A* 11.7

*Q* For Cc1cccc(Oc2ccc(Nc3ncnc4ccc(NC(=O)CN5CCN(C)CC5)cc34)cc2Cl)c1 then?
*A* 18

*Q* Would you kindly repeat that for O=C(Nc1ccc2ncnc(Nc3ccc(Oc4cccc(F)c4)c(Cl)c3)c2c1)c1ccc(CNCCO)cc1 ?
*A* 18

###

tested on: MDA-MB-231; assay: Antiproliferative activity against human MDA-MB-231 cells assessed as reduction in cell viability incubated for 72 hrs by WST8 assay; assay type: functional, cell-based; details: MDA-MB-231, 72 h
OUTCOME MEASURE: IC50 (µM)
# number only, unit µM dropped from output

Reference set (4 entries):
COMPOUND STRUCTURE STRING	READING
O=C(CN1CCOCC1)Nc1ccc2ncnc(Nc3ccc(OCc4cccc(F)c4)c(Cl)c3)c2c1	11.6
CN1CCN(CC(=O)Nc2ccc3ncnc(Nc4ccc(OCc5cccc(F)c5)c(Cl)c4)c3c2)CC1	1.36
Cc1cccc(Oc2ccc(Nc3ncnc4ccc(NC(=O)CN(C)C)cc34)cc2Cl)c1	4.51
CCN(CC)CC(=O)Nc1ccc2ncnc(Nc3ccc(Oc4cccc(F)c4)c(Cl)c3)c2c1	3.92

Note: attention shifts to another entry.
*Q* Any idea what IC50 came out for FC(F)(F)c1cccc(Oc2ccc(Nc3ncnc4ccc(OCCCN5CCOCC5)cc34)cc2Cl)c1 on MDA-MB-231?
*A* 6.73

All figures here come from ChEMBL document CHEMBL4715878.
